# assaySystem: human muscarinic M4 receptor (Homo sapiens)
# Construct: expressed in transfected cells
# Sequence (P08173 1-479): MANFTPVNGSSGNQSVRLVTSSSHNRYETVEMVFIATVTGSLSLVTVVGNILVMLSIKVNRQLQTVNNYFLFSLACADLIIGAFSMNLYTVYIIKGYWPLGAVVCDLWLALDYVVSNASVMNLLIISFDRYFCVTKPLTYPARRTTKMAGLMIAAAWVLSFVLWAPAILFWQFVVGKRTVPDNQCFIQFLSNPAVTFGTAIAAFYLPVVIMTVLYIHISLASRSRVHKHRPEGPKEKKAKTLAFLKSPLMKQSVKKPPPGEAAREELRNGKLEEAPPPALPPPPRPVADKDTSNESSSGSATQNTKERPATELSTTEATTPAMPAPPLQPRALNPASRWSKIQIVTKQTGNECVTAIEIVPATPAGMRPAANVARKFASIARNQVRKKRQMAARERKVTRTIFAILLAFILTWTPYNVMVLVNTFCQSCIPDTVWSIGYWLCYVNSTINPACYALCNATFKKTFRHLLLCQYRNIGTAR
# testName: Alphascreen Surefire phospho-ERK1/2 functional assay, M4
# Format: cell-based
# measurementParameters: CHO cells stably expressing human M4; relative to ACh
measurementName: % Emax cf. ACh (M4) (%)

                                   molecule                               assaysystem  value
0  CCOC(=O)N1C2CCCC1CC(N1CC3C(C1)C3C(=O)N(C)CC)C2 (single isomer, unassigned; isomer 2) [9-1 Isomer 2]  human muscarinic M4 receptor (Homo sapiens)     24
1  CCOC(=O)N1C2CCC1CC(N1CC3C(C1)C3C(=O)N(C)CC)C2 (single isomer, unassigned; isomer 1) [7-2 Isomer 1]  human muscarinic M4 receptor (Homo sapiens)     14
2  CCOC(=O)N1C2COCC1CC(N1CC3C(C1)C3C(=O)N1CCOCC1)C2 (single isomer, unassigned; isomer 1) [10-13 Isomer 1]  human muscarinic M4 receptor (Homo sapiens)     64
3  CCN(C(=O)C1C2CN(C3CC4COCC(C3)N4C(=O)OC)CC21)C(C)C (single isomer, unassigned; isomer 2) [10-7 Isomer 2]  human muscarinic M4 receptor (Homo sapiens)     64
4  CCN(C(=O)C1C2CN(C3CC4COCC(C3)N4C(=O)OC)CC21)C(C)C (single isomer, unassigned; isomer 1) [10-7 Isomer 1]  human muscarinic M4 receptor (Homo sapiens)     69
5  CCOC(=O)N1C2CCC1CC(N1CC3C(C1)C3C(=O)N(C)CC)C2 (single isomer, unassigned; isomer 2) [7-2 Isomer 2]  human muscarinic M4 receptor (Homo sapiens)     53

---

# assaySystem: human muscarinic M4 receptor (Homo sapiens, UniProt P08173)
# Construct: expressed in transfected cells
# testName: Alphascreen Surefire phospho-ERK1/2 functional assay, M4
# Type: cell-based
# measurementParameters: CHO cells stably expressing human M4; relative to ACh
// rule not met strictly below 40% in % Emax cf. ACh (M4); rule met otherwise

>>> df
                                   compound   answerlabel
0  CCOC(=O)N1C2COCC1CC(N1CC3C(C1)C3C(=O)N(CC)CC)C2 (single isomer, unassigned; isomer 2) [10-2 Isomer 2]      rule met
1  CCOC(=O)N1C2COCC1CC(N1CC3C(C1)C3C(=O)N(C)C1CC1)C2 (single isomer, unassigned; isomer 1) [10-8 Isomer 1]      rule met
2  CCOC(=O)N1C2CCCC1CC(N1CC3C(C1)C3C(=O)N(C)CC)C2 (single isomer, unassigned; isomer 1) [9-1 Isomer 1]      rule met
3  CCOC(=O)N1C2COCC1CC(N1CC3C(C1)C3C(=O)N(CC)C1CC1)C2 (single isomer, unassigned; isomer 2) [10-9 Isomer 2]  rule not met
4  CCN(CC)C(=O)C1C2CN(C3CC4CCCC(C3)N4C(=O)OC)CC21 (single isomer, unassigned; isomer 1) [9-3 Isomer 1]      rule met

Cited source: patent US10329278B2
